Where do the numbers come from? From PubChem BioAssay (NCI).

Test system: MDA-MB-435 melanoma
Experiment: NCI-60 one-dose screen, 48 h (100 = growth as untreated, 0 = no growth, -100 = all killed)
Conditions: 10 µM unless noted
Method: Growth inhibition of the MDA-MB-435 human Melanoma tumor cell line is measured as a screen for anti-cancer activity. Cells are grown in 96 well plates and exposed to the test compound for 48 hours. Compounds are tested at a single concentration, which is 10^-5 M for most compounds. The reported endpoint is percent growth (GI% or GIPRCNT), where numbers from 0 - 100% represent growth inhibition, and numbers from -100% - 0 represent cell death. […]
About 83,000 compounds went through this panel and 20% of them were active in at least one assay; those are over-represented in the sample as a whole.

MOLECULE SMILES: COC(=O)CCC/C=C\C[C@H]1C=CC(=O)/C1=C/C[C@@H](O)C/C=C\CC(F)(F)F
UNITS LABEL: %
growth: 4.2

MOLECULE SMILES: COc1ccc2cc(-c3ccnc4c(N=Nc5ccc(Cl)cc5)c(N)nn34)ccc2c1
UNITS LABEL: %
growth: 105

MOLECULE SMILES: O=[N+]([O-])c1cc(NS(=O)(=O)c2ccccc2)ccc1NS(=O)(=O)c1ccccc1
UNITS LABEL: %
growth: 123

MOLECULE SMILES: COc1ccc(C(=O)c2cc3c(N)c(C(=O)Nc4ccccc4)sc3nc2C)cc1
UNITS LABEL: %
growth: -5.47

MOLECULE SMILES: c1nc2ccc(-c3cc4ccc5[nH]ncc5c4c4c3CCCC4)cc2[nH]1
UNITS LABEL: %
growth: 21.2

###

system: IGROV1 ovarian; assay: NCI-60 one-dose screen, 48 h; details: 10 µM unless noted
Compounds without any hit were thinned out: in the full panel of roughly 83,000, 20% have a hit. Active and inactive are the calls of the source. Rule for the calls: active = growth percent below 10; inactive = the rest.
Possible outcomes: active, inactive

COMPOUND: C=C1C(=O)O[C@H]2[C@H]1CC/C(COC(=O)c1cc3cc(Cl)ccc3[nH]1)=C\CC[C@@]1(C)O[C@@H]21
CLASS NAME: active

COMPOUND: CCCn1nc(C(=O)N(C)Cc2ccccc2)c2c1CCC(N1CCc3ccccc31)C2 (configuration not stated)
CLASS NAME: inactive

COMPOUND: Nc1nc(NC(=O)Nc2ccc(C(=O)O)cc2)nn1-c1ccc(S(N)(=O)=O)cc1
CLASS NAME: inactive

COMPOUND: N=c1c(S(=O)(=O)c2ccccc2)cc2c(=O)n3ccccc3nc2n1CC1CCCO1 (configuration not stated)
CLASS NAME: inactive

COMPOUND: Fc1ccc(Cn2cc(CSc3nc4ccccc4o3)nn2)cc1
CLASS NAME: inactive

COMPOUND: CS(=O)(=O)Nc1cc(-c2ccc3ncc(C#N)c(Nc4ccc(F)c(Cl)c4)c3c2)cnc1Cl
CLASS NAME: active

COMPOUND: CC1CCN(C(=S)SCC(=O)NC(=O)c2ccccc2)CC1
CLASS NAME: inactive

COMPOUND: O=C(N/N=C\c1ccccc1S(=O)(=O)O)N/N=C/c1ccccc1S(=O)(=O)O
CLASS NAME: inactive

COMPOUND: C=CC(=O)Nc1ccc(Nc2nccc(-c3ccc(N4CCCC4)c(C#N)c3)n2)cc1
CLASS NAME: inactive

COMPOUND: Cc1ccc(/C=C/C(=O)c2cccc(OCCCOc3cccc(C(=O)/C=C/c4ccc(C)cc4)c3)c2)cc1
CLASS NAME: inactive

COMPOUND: NC(N)=NS(=O)(=O)c1ccc(NC2=C(I)C(=O)c3ncccc3C2=O)cc1
CLASS NAME: inactive

COMPOUND: N[C@H]1CCC[C@@H]1NCCCCN1C(=O)c2cccc3cc([N+](=O)[O-])cc(c23)C1=O
CLASS NAME: inactive

COMPOUND: C/C=C(/C)n1cnc2c(Nc3ccccn3)nc(Cl)nc21
CLASS NAME: inactive

COMPOUND: Nc1nc2c(c3ncccc13)C(c1cccc(Cl)c1)Cc1ncccc1-2 (configuration not stated)
CLASS NAME: inactive

COMPOUND: COc1ccc2nc(Cl)c(/C=C3\CC(c4ccccc4)=NN(c4ccccc4)C3=O)cc2c1
CLASS NAME: inactive

COMPOUND: C/C(=N\O)c1ccc(NC(=O)CSc2nnc(-c3cc(-c4ccc(S(N)(=O)=O)cc4)nc4ccccc34)n2-c2ccccc2)cc1
CLASS NAME: inactive

COMPOUND: C=C1C(=O)O[C@H]2[C@H]1CC/C(COC(=O)NCc1ccc(Cn3c(=O)sn(-c4ccc(C#N)cc4)c3=O)cc1)=C\CC[C@@]1(C)O[C@@H]21
CLASS NAME: inactive

COMPOUND: CC(=O)OC[C@]12CC[C@@H]([C@@H](C)c3nnc(-c4ccncc4)o3)[C@@H]1[C@H]1CC[C@@H]3[C@@]4(C)CC[C@H](OC(C)=O)C(C)(C)[C@@H]4CC[C@@]3(C)[C@]1(C)CC2
CLASS NAME: inactive

COMPOUND: FC(F)(F)Oc1cccc(-c2cnc3ccc(-c4ccncc4)nn23)c1
CLASS NAME: inactive

COMPOUND: COc1ccc(C[n+]2c3ccccc3n3c4ccc(N)cc4ccc32)c(OC)c1OC
CLASS NAME: inactive

COMPOUND: COc1ccccc1C(=O)Nc1cccc(NC(=O)c2ccoc2C)c1
CLASS NAME: inactive

COMPOUND: O=c1cc(-c2ccccc2)[nH]c2ncc(-c3ccc(F)cc3)n12
CLASS NAME: inactive

COMPOUND: C=C1C(=O)O[C@H]2[C@H]1CC/C(CNC(=O)c1c[nH]c3ccc(F)cc13)=C\CC[C@@]1(C)O[C@@H]21
CLASS NAME: inactive

COMPOUND: COC(=O)c1c2c(c(C)[n+]([O-])c1C)C(=O)C(NCc1ccc(OC)cc1)=CC2=O
CLASS NAME: active

COMPOUND: CCN(CC)CCN1C(=O)c2cccc3c(/C=C/CN4C(=O)c5cccc6cccc(c56)C4=O)ccc(c23)C1=O
CLASS NAME: inactive

COMPOUND: Cc1ccccc1Nc1cc(O)c2c(=O)cc(-c3ccccc3)oc2c1
CLASS NAME: inactive

COMPOUND: O=C1C(Nc2ccccn2)=C(I)C(=O)c2ncccc21
CLASS NAME: active

COMPOUND: COc1cc(OC)c(/C=C/C(=O)c2c(O)cc(OC)c(C3CCN(C)CC3)c2OC)c(OC)c1
CLASS NAME: inactive

COMPOUND: Cc1ccc(/C=C/C(=O)Nc2ncc(Cc3ccc(F)cc3)s2)o1
CLASS NAME: inactive

COMPOUND: N#CC1=C(N)Oc2ccc3ccccc3c2C1c1ccc([N+](=O)[O-])cc1 (configuration not stated)
CLASS NAME: inactive

COMPOUND: COCCn1cc(-c2csc(-c3c[nH]c4ccc(Br)cc34)n2)c2cccnc21
CLASS NAME: inactive

COMPOUND: Nc1ccc(-c2csc(-n3[nH]c(=O)ccc3=O)n2)cc1
CLASS NAME: inactive

COMPOUND: CC1(C)NCCC[C@]2(C)[C@H]3CC[C@H]4[C@H]5[C@H](C(=O)/C=C/c6cccnc6)CCC[C@]5(CO)CC[C@@]4(C)[C@]3(C)CC[C@@H]12
CLASS NAME: inactive

COMPOUND: O=C(Nc1ncc(Cc2cc(C(F)(F)F)ccc2Cl)s1)c1cccs1
CLASS NAME: inactive

COMPOUND: CCOC(=O)C(=Cc1ccc(-c2ccccc2)cc1)C(=O)OCC
CLASS NAME: inactive

COMPOUND: Cc1ccc(C(=O)c2ccc(CC(=O)NN3C(=O)c4ccccc4C3=O)n2C)cc1
CLASS NAME: inactive

COMPOUND: Cc1ccnc(Nc2ccc([N+](=O)[O-])c(NCCN3CCOCC3)n2)c1
CLASS NAME: inactive
